Where do the numbers come from? From patent US20240409658A1.

- test system: T1, human CD228 on the cell surface (RPMI-7951 cells stably expressing human CD228; A375 cells) (human, UniProt P08582 20-709)
- T1 construct: whole, on cells; also called p97; melanotransferrin
- T1 sequence (looked up): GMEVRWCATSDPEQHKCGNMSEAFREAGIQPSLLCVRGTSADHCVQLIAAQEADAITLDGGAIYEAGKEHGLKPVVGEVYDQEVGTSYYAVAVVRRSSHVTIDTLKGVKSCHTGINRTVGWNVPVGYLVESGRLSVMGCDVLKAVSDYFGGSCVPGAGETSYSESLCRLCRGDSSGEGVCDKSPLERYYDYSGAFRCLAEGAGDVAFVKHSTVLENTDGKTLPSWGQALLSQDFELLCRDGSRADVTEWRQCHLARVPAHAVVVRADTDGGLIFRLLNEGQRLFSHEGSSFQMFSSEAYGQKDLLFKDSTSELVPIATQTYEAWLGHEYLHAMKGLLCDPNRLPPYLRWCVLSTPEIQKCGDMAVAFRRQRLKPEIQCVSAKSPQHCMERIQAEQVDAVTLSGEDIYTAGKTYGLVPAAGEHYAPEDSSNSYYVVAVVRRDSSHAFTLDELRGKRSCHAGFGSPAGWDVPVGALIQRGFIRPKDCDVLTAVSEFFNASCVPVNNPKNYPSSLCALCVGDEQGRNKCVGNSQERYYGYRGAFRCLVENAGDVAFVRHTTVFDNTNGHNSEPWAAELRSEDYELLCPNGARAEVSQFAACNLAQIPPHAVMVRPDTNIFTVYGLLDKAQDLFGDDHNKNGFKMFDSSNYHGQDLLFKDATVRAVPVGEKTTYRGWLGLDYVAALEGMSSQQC
- assay method text: saturation binding by flow cytometry on RPMI-7951 cells stably expressing human CD228; apparent KD
attribute measured: Kd (nM)
// return numeric value only (unit: nM, not printed)

Some solved cases for reference:
{"columns": ["binder", "result unit", "Kd"],
 "data": [
  ["hL49 HALB G1 (antibody, V domains shown, Humanized L49 with heavy chain HA and light chain LB; 'G1' (IgG1)) VH: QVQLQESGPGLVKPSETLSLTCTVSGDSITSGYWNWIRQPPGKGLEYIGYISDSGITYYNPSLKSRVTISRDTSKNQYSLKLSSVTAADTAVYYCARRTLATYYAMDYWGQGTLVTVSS VL: DFVMTQSPLSLPVTLGQPASISCRASQSLVHSNGNTYLHWYQQRPGQSPRLLIYRVSNRFSGVPDRFSGSGSGTDFTLKISRVEAEDVGVYYCSQSTHVPPTFGQGTKLEIK", "nM", 7.8],
  ["hL49 HALC G1 (antibody, human IgG1, kappa, V domains shown, Humanized L49, IgG1 kappa) VH: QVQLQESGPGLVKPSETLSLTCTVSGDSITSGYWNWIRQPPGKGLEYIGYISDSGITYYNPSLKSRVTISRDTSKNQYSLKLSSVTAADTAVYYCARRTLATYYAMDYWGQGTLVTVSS VL: DFVMTQSPLSLPVTLGQPASISCRASQSLVHSDGNTYLHWYQQRPGQSPRLLIYRVSNRFSGVPDRFSGSGSGTDFTLKISRVEAEDVGVYYCSQSTHVPPTFGQGTKLEIKT", "nM", 4],
  ["hL49 HALA G1 (antibody, V domains shown, Humanized L49 with heavy chain HA and light chain LA; 'G1' (IgG1)) VH: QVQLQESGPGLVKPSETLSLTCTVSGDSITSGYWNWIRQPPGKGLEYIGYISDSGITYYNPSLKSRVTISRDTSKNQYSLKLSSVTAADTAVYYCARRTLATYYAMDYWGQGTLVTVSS VL: DFVMTQSPLSLPVTLGQPASISCRASQSLVHSNGNTYLHWFQQRPGQSPRRLIYRVSNRFSGVPDRFSGSGSGTDFTLKISRVEAEDVGVYYCSQSTHVPPTFGQGTKLEIK", "nM", 5.3]
]}

INPUT: Please give measured Kd of the following entry: cL49ec (chimeric L49 with an S239C mutation) (antibody, V domains shown, Human constant regions with S239C; also called chimeric LA9) VH: EVQLQESGPSLVKPSQTLSLTCSVTGDSITSGYWNWIRKFPGNKLEYMGYISDSGITYYNPSLKSRISITRDTSKNQYYLQLNFVTAEDTATYNCARRTLATYYAMDYWGQGTSVTVSS VL: DFVMTQTPLSLPVSLGDQASISCRASQSLVHSNGNTYLHWYLQKPGQSPKLLIYRVSNRFSGVPDRFSGSGSGTDFTLKISRVEAEDLGVYFCSQSTHVPPTFGGGTKLEIK
OUTPUT: 5.8
